In this section we review reported kon values for a set of binders.
- TARGET_DESC: recombinant human ICAM1 (human, UniProt P05362 28-480, limits assumed)
- Sequence (P05362 28-480 limits assumed): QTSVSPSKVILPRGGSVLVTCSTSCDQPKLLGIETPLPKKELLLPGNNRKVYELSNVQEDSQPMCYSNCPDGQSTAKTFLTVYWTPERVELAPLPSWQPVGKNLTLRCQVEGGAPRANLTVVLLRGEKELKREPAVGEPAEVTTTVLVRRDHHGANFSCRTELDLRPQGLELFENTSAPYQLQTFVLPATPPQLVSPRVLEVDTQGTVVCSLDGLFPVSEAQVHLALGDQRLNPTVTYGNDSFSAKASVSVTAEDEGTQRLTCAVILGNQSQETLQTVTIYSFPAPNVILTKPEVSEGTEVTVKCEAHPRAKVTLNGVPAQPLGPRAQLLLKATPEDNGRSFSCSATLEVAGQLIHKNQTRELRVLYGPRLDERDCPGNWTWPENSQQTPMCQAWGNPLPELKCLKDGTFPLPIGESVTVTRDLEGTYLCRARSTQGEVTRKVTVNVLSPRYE
- ASSAY_INFO: SPR (Biacore 8K), antibody captured, antigen injected
Quote the value and follow it with the unit of measurement.

Reference set (3 entries):
Query: I am curious: what kon value has been reported for 11F2 (antibody, human IgG1, kappa, V domains shown, Rabbit-human chimeric anti-ICAM1: rabbit VH and VL on human IgG1 and kappa constant regions) VH: QSVEESGGGLVKPGGTLTLTCTVSGFSLSSHAMGWVRQAPGKGLEYIGIIGSSDRTYYASWAKGRFTISKTSTTVDLKITSPTTEDTATYFCVRDPYDSYDDGYRLWGPGTLVTVSS VL: AYDMTQTPASVEVAVGGTVTIKCQASQSIYRYLSWYQKKPGQRPKFLIYDASKLASGVPSRFEGSGSGTEFTLTISGAQSDDAATYYCQQAYSSGSIDNAFGGGTEVVVKR ?
Reply: 456000 M⁻¹ s⁻¹

Query: Note, next up: 11G7 (antibody, human IgG1, kappa, V domains shown, Rabbit-human chimeric anti-ICAM1: rabbit VH and VL on human IgG1 and kappa constant regions) VH: QSVEESGGRLVTPGTPLTLTCTVSGFSLSDYYMSWVRQAPGKGLEWIGIISDSGSTYYASWAKGRFTISKTSSTTVDLKITSPTTEDTATYFCARDWSYDSSSGYYYYDMDLWGPGTLVTVSA VL: AYDMTQTPASVEVAVGGTVTIKCQASQSINSWLSWFHQKPGQPPKRLIYKASTLASGVSSRFKGSGSGTQFTLTISGVESADAATYYCQQGYSRSDGEHVFGGGTEVVVKR
Reply: 103000 M⁻¹ s⁻¹

Query: Note, next up: 6G8 (antibody, human IgG1, kappa, V domains shown, Rabbit-human chimeric anti-ICAM1: rabbit VH and VL on human IgG1 and kappa constant regions) VH: QSVEESGGGLVKPGGTLTLTCTVSGFSLSSYAMGWVRQAPGKGLEYIGIIGSSGSTYYATWAKGRFTISKTSTTVDLKITSPTTEDTATYFCVRDPYDSYDAAYRLWGPGTLVTVSS VL: AYDMSQTPASVEVAVGGTVTIKCQASQSIYSYLSWYQQKPGQRPKLLIYDASKLASGVPSRFTGSGSGTEFTLTISGVQSDDAATYYCQQAYSSSNVDNVFGGGTEVVVKR
Reply: 314000 M⁻¹ s⁻¹

---
Query: I am curious: what kon value has been reported for 14B3 (antibody, human IgG1, kappa, V domains shown, Rabbit-human chimeric anti-ICAM1: rabbit VH and VL on human IgG1 and kappa constant regions) VH: QSLEESGGDLVKPGASLTLTCTASGFSSSSGYYICWVRQAPGKGLEWIACIGAGSGAAYYASWAKGRFTMSKTSSTTVTLQMTSLTAADTATYFCARGGFVVGGGYGGYCFNLWGPGTLVTVSS VL: AQVLTQTASSVSATVGGTVTISCQSSESVDVNNLAWYQQKPGQPPKLLIYSASTLASGVPSRFKGSGSGTQFTLTVSDLESADAATYYCAGGYSGNIFAFGGGTAVVVKR ?
Reply: 94800 M⁻¹ s⁻¹
